target or test system: BCRP (Homo sapiens, UniProt Q9UNQ0)
Construct: expressed in transfected cells; host or cells: MDCK
Sequence (Q9UNQ0 whole entry): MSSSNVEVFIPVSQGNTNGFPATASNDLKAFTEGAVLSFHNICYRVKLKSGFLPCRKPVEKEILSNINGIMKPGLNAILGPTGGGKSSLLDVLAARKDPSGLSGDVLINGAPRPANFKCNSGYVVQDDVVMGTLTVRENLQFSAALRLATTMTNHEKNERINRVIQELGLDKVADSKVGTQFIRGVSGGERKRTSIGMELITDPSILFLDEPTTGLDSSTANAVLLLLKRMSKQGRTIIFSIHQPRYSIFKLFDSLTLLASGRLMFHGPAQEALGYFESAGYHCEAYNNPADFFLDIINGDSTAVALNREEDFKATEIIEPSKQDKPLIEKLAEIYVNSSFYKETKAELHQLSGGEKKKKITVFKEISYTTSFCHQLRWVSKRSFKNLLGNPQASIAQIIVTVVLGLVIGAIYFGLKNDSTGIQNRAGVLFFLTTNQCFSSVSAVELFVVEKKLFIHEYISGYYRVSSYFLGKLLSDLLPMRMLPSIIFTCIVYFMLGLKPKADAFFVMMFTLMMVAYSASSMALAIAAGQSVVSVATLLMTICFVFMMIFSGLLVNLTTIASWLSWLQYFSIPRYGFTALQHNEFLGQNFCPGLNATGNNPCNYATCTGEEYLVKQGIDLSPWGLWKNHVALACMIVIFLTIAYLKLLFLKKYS
procedure summary: MDCK-BCRP efflux
Format: in vitro ADME
measurement parameters: dog, read-out: MDCK-BCRP ER
test readout: efflux ratio at 1 µM

>>> print(df.to_string())
                                smiles_repr          test_readout   val
0  COCC[C@H]1CNC(=O)c2c1[nH]c(-c1ccnc(C)n1)c2Nc1cccc(Cl)c1OC  efflux ratio at 1 µM  1.17

---

target or test system: MDR1 (Homo sapiens, UniProt P08183)
Construct: expressed in transfected cells; host or cells: MDCK
Sequence (P08183 whole entry): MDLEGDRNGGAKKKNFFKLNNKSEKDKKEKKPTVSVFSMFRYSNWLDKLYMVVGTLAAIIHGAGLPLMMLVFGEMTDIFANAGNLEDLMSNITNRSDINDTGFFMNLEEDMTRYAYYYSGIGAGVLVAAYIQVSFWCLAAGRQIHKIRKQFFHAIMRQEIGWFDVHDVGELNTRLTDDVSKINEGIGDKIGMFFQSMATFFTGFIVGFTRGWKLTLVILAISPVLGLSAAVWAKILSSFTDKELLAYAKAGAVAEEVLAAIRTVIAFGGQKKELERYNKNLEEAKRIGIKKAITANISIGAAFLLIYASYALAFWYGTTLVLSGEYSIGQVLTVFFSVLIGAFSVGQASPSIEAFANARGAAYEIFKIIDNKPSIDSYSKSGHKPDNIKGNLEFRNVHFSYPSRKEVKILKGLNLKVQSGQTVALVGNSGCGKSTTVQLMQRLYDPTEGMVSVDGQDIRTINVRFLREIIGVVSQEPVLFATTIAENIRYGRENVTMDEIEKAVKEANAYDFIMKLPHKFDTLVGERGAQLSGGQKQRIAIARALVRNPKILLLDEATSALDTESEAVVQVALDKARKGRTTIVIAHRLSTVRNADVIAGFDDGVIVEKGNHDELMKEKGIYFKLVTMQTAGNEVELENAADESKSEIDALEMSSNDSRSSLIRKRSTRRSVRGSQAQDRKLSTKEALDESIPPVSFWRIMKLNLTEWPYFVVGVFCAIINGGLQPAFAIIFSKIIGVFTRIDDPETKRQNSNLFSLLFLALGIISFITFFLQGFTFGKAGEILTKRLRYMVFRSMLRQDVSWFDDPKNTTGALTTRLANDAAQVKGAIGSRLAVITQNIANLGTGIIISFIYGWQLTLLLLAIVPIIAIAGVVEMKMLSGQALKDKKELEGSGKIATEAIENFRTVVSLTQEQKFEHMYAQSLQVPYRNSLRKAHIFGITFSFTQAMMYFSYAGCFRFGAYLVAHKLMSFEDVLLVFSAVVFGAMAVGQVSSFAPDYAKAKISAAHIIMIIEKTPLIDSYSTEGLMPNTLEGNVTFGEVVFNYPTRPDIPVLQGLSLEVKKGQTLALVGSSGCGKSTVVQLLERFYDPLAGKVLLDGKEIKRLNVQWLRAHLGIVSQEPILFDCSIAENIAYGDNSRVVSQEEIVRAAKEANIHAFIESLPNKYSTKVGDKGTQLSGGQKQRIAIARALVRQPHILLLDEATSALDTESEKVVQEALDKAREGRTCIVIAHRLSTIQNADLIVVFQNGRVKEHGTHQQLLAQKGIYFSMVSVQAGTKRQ
procedure summary: MDCK-MDR1 efflux
Type: in vitro ADME
measurement parameters: dog, read-out: MDCK-MDR1 ER
test readout: efflux ratio at 1 µM

>>> df
                                smiles_repr          test_readout   val
0  COCC[C@H]1CNC(=O)c2c1[nH]c(-c1ccnc(C)n1)c2Nc1cccc(Cl)c1OC  efflux ratio at 1 µM  0.95

---

procedure summary: Caco-2 in vitro permeability (efflux ratio)
Format: in vitro ADME
measurement parameters: human, read-out: CAco-2 ER
test readout: efflux ratio at 1 µM

>>> print(df.to_string())
                                smiles_repr   val
0  COCC[C@H]1CNC(=O)c2c1[nH]c(-c1ccnc(C)n1)c2Nc1cccc(Cl)c1OC  1.76
